Each recorded value in this set is attributed to ChEMBL document CHEMBL4831494.

Here's what we have: IC50 numbers for Focal adhesion kinase 1 (Homo sapiens).
measurement name: IC50 (nM)

[I] COc1cccc(Nc2nc(NCc3cccnc3N(C)S(C)(=O)=O)c3c(F)c[nH]c3n2)c1C
[II] CNC(=O)c1ccccc1Nc1nc(Nc2ccc(N3CCOCC3)cc2OC)nc2[nH]cc(F)c12
Q: Compare I and II and name the one whose reported IC50 is smaller. Response format: the label of the selected entry.
Ans: II
(II: 23 nM, I: 76 nM)

[a] CN(c1ncccc1CNc1nc(Nc2ccc3c(c2)CC(=O)N3)nc2[nH]ccc12)S(C)(=O)=O
[b] CC(=O)Nc1cccc(Nc2nc(NCc3cccnc3N(C)S(C)(=O)=O)c3c(F)c[nH]c3n2)c1
[c] CN(c1ncccc1CNc1nc(Nc2cccc(CN)c2)nc2[nH]cc(F)c12)S(C)(=O)=O
[d] CN(c1ncccc1CNc1nc(Nc2ccc3c(c2)CC(=O)N3)nc2[nH]ncc12)S(C)(=O)=O
Q: Please give the order of these compounds when sorted by IC50, largest value leading. Please list each label once, in the requested order.
Ans: c, d, a, b
(c: 2100 nM, d: 206 nM, a: 55 nM, b: 21 nM)

[P] COc1ccc(Nc2nc(NCc3cccnc3N(C)S(C)(=O)=O)c3c(F)c[nH]c3n2)cc1OC
[Q] CN(c1ncccc1CNc1nc(Nc2cccc(C#N)c2)nc2[nH]cc(F)c12)S(C)(=O)=O
Q: Compare P and Q and name the one whose reported IC50 is smaller. Response format: the label of the selected entry.
Ans: P

[a] CN(c1ncccc1CNc1nc(Nc2ccccc2)nc2[nH]cc(F)c12)S(C)(=O)=O
[b] CN(c1ncccc1CNc1nc(Nc2ccc3c(c2)CC(=O)N3)nc2[nH]cc(Cl)c12)S(C)(=O)=O
Q: Compare a and b and name the one whose reported IC50 is smaller. Response format: the label of the selected entry.
Ans: b
